Entry source: the supplement of paper PMC10567573

Test: protein stability index of a GFP-peptide fusion (GPS, HEK-293T) (PSI 1-6); higher = more stable;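 also: 24-mer peptide tiles fused after GFP, lentivirally expressed, FACS-sorted into six equal bins by GFP/DsRed ratio, decoded by Illumina sequencing, PSI is the read-weighted mean bin number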
Conditions: treatment: DMSO; c terminus: a fixed tail appended
measurement_kind: protein stability index
Answer with a number only.

For the sequence RHAEQQALRLEVRAGPDSAGIALY [CARM1] , give its reported protein stability index.
2.54

Indicate the recorded protein stability index value for this sequence: TAELVVIEDAAEPKEPAPPNGSAA [PALM]
5.39

Identify protein stability index associated with the sequence FEKSRYETYIHLLAMKIKVGSDDL [PSD2]
2.53

Identify protein stability index associated with the sequence LTRQLVSCSSDGGIAVWNMDVSRE [WDFY1]
2.96

State its protein stability index: KVEVDMEKIAAEIAQAEEQARKRQ [SMARCE1]
4.99

Please give the documented protein stability index of PQYAERLLSGAFKKRRLPPVHIHP [FOXJ1]
2.76

Return reported protein stability index. Input sequence: FWHDTLTEQLWRIFAGVHDEKAKP [TLE6]
2.23

Let me know recorded protein stability index for ESTELMTHLEAQNRIKGCHDHLTL [PDLIM4] , thanks.
3.83

For LPIVKLLAKQPGVSVNAQTLDGRT [RIPK4] , write its protein stability index.
2.71

Give reported protein stability index value for QPGLSFLNLGSGTGYLSTMVGLIL [PCMTD1]
2.15

Return the recorded protein stability index value; entry: QNLYFNCSSPGVQACSLPASCCID [TSPAN10]
3.12

Note down protein stability index recorded for YTKLPSSLQSTGKCLLYCNGVLEP [SLC25A39]
2.64

Please give measured protein stability index of the following entry: SPVRCGGPGDASPRGCGARRAGEG [WEE1]
4.54

Return the recorded protein stability index value; entry: SDNMSHLMVDFAQERQMLQALKFL [FSD1]
2.55

Provide measured protein stability index value, entry: GPAGGLADLSSGSSGEDDDFKSCP [PWWP2B]
5.43

Look up and report measured protein stability index for this entry: IFNNVMTLCAMLPLLLFTYLNSFL [SLC29A1]
3.25

Look up and report measured protein stability index for this entry: TVEPRLLVADLLYWKDTRTSGVVF [RTN2]
2.97

For the sequence GAEPSAPGGGGSPGACPALGTKSC [RTN3] , report protein stability index.
5.36

State, in one line, measured protein stability index of RGFAFVTFESPADAKDAARDMNGK [RBMX]
4.12

Name the recorded protein stability index of the item EDHKPGTFPKALTNGSFSPSGNNG [DLC1] in your answer.
4.89

Query protein stability index for ETLLKVDLENRCQSLTEDLEFRKS [LMNB1]
4.42

Report protein stability index, nothing else, for this sequence: MPNVMTGTMGMAPLGNTPMMNQSM [CLINT1]
3.68

For MELLTNNLKFITDPFVCRLRHLSP [OR4A15] , write its protein stability index.
2.17

Look up protein stability index of AQKTALLQDGRRKVHYLFPDGKEM [DPCD] and report it.
3.29

Give recorded protein stability index. EMPTQPGKPLIPPMNRRNILVMKH [NETO1]
3.21

Return protein stability index (reported value) for this sequence: IPKPQSTGWFGGGFTSYLGFGDED [MIA2]
3.14

Answer with reported protein stability index of NVVVHDWLYYYAYKDFLWFFSKRF [SOAT1]
2.18
